- TEST_SYSTEM: Adenosine receptor A1 (Homo sapiens) (UniProt P30542)
- Sequence (whole entry): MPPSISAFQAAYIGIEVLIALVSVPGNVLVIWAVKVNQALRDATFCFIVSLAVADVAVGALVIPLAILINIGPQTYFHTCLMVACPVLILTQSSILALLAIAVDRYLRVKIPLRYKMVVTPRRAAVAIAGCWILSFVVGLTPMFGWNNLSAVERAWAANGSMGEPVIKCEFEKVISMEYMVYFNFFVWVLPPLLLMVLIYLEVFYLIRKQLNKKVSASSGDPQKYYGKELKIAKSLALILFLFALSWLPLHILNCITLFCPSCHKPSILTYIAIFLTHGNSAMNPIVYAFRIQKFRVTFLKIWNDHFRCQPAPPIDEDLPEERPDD
- TEST: Displacement of [3H]-DPCPX from human adenosine A1 receptor expressed in CHO cell membranes at 10 uM by scintillation counting analysis relative to control
MEASURE_NAME: inhibition (%)

Recorded results for 5 compounds are shown here.
| COMPOUND_STRUCTURE | UNIT_TEXT | inhibition |
| --- | --- | --- |
| CC(C)(C)Cc1c(-c2cccnc2)sc(N)c1C(=O)c1ccc(Cl)cc1 | % | 1 |
| Cc1ccccc1-c1sc(N)c(C(=O)c2ccc(Cl)cc2)c1CC(C)(C)C | % | 1 |
| CC(C)(C)Cc1c(-c2cc(F)ccc2F)sc(N)c1C(=O)c1ccc(Cl)cc1 | % | 3 |
| CC(C)(C)Cc1c(-c2ccoc2)sc(N)c1C(=O)c1ccc(Cl)cc1 | % | 1 |
| Cc1cccc(-c2sc(N)c(C(=O)c3ccc(Cl)cc3)c2CC(C)(C)C)c1 | % | 1 |

[A] CC(C)(C)Cc1c(-c2ccc(Cl)c(Cl)c2)sc(N)c1C(=O)c1ccc(Cl)cc1
[B] COc1ccc(-c2sc(N)c(C(=O)c3cccc(C(F)(F)F)c3)c2CC(C)(C)C)cc1
# query: argmin of inhibition over A and B Pick one; state its label.
A

[a] COc1ccc(-c2sc(N)c(C(=O)c3ccc(Cl)cc3)c2CC(C)(C)C)cc1
[b] CC(C)(C)Cc1c(-c2ccsc2)sc(N)c1C(=O)c1ccc(Cl)cc1
Compare a and b and name the one whose reported inhibition is smaller. Your answer should be the label of the entry you select.
a
